Tested on: HOP-62
Experiment: NCI tumour cell line growth inhibition, 48 h
Active and inactive are the calls of the source. Cut-off read from the data, not from the text of the source: active = GI50 up to about 1.1 µM and inactive = higher. Non-standard residues stand in square brackets, D forms with d. Residues, ends and D or L forms follow the SMILES beside them. *: point of attachment. Benzoyl(4-OMe) = COc1ccc(C(=O)*)cc1; 2Thi = N[CH](Cc1cccs1)C(=O)O
Classes used: YES = active, NO = inactive

1. O=S(=O)(N/C(=N\O)Nc1ccc(Cl)cc1)c1cc(C(F)(F)F)cc(C(F)(F)F)c1    NO
2. O=S(=O)(Sc1ccc(Cl)cc1)c1ccc(Cl)cc1    NO
3. CCC(=O)OCN1C(=O)C=CC1=O    NO
4. N#C/C=C1\C=CC(O)C(O)C1OC1OC(CO)C(O)C(O)C1O (centres undefined)    NO
5. N=C(N)SC(c1ccccc1)c1ccccc1    NO
6. CC(C)(C)C1=C(Br)C(Br)(C(C)(C)C)OP1(=O)c1ccccc1 (centres undefined)    NO
7. CCOC(=O)c1c[nH]c2cc3c(cc2c1=O)CCS3(=O)=O.CCOC(=O)c1c[nH]c2ccc3c(c2c1=O)S(=O)(=O)CC3    NO
8. OC(O)(C(F)(F)F)C(F)(F)F    NO
9. O=C(O/N=C1/CCC/C1=C\c1ccccc1)c1ccc([N+](=O)[O-])cc1    NO
10. BrC1=CC=C2NCCCCCC/N=C3\C=CC(Br)=CC=C3NCCCCCC/N=C\2C=C1    NO
11. Nc1ccccc1Sc1ccc(Cl)cc1    NO
12. Cc1nn(C)c2c1C(=O)N(C)CC(=O)N2C    NO
13. O=c1c2cccnc2[nH]c2ccc3scnc3c12    NO
14. CCn1c(SCC(=O)NNC(=S)Nc2ccc(F)cc2)nc2ccccc2c1=O    NO
15. Cc1cc(NC(=O)NC(=O)c2ccccc2[N+](=O)[O-])ccc1Oc1ncc(Cl)cn1    YES
16. CCOCC(=O)N[C@H]1CCc2cc(OC)c(OC)c(OC)c2-c2ccc(SC)c(=O)cc21    YES
17. CCOc1ccc(/N=C/c2ccc3ccccc3n2)cc1    NO
18. Cc1nc2cccc([N+](=O)[O-])c2n1CCCN(C)C    NO
19. COc1ccc(-c2c(C#N)c(O)n(NS(=O)(=O)c3ccc(C)cc3)c(=O)c2C#N)cc1    NO
20. Cc1ncc([N+](=O)[O-])n1CCN(C)CCCCn1ccnc1[N+](=O)[O-]    NO
21. CSc1ncnc2c1ncn2CCC#N    NO
22. CC(C)(C)C1CC[C@H](O)[C@H]([C@@H](O)CC2CC(=O)N(c3ccccc3)C(=O)C2)C1 (some centres undefined)    NO
23. N#Cc1cc(-c2nc3cc(F)ccc3s2)ccc1N    NO
24. CC(=O)O[C@H]1C(=O)[C@@]2(C)[C@H]([C@H](OC(=O)c3ccccc3)[C@]3(O)C[C@H](OC(=O)[C@H](OC(=O)OCCC(O)CO)[C@@H](NC(=O)c4ccccc4)c4ccccc4)C(C)=C1C3(C)C)[C@]1(OC(C)=O)CO[C@@H]1C[C@@H]2O (some centres undefined)    YES
25. CC1=NN(C(=O)Cc2ccccc2)C(=O)/C1=C\c1cccc(O)c1    NO
26. CC(=O)OC12c3ccccc3C(c3ccccc31)C1C(=O)N(c3ccccc3O)C(=O)C12 (centres undefined)    NO
27. CC(CC(=O)O)(CC(=O)O)c1ccccc1    NO
28. O=C1/C(=C/c2cccnc2)C(n2cccc2)c2c(Br)sc(Br)c21 (centres undefined)    NO
29. CCC(C)C(NC(=O)C(Cc1cccs1)NC(=O)C(CC(C)C)NC(=O)C(CC(C)C)NC(=O)C(CCCCN)NC(=O)C(CCCNC(=N)N)NC(=O)c1ccc(OC)cc1)C(=O)NC(CC(C)C)C(N)=O (centres undefined) ({Benzoyl(4-OMe)}-RKLL[2Thi]IL-NH2; configuration not given here)    NO
30. N#Cc1nc(C(=O)c2ccccc2)oc1N    NO
31. CC(C)(C)[Si](C)(C)OCC1OC(n2cc(F)c(=O)[nH]c2=O)CC1O[Si](C)(C)C(C)(C)C (centres undefined)    NO
32. O=C(O)c1ccc(Nc2c3ccccc3nc3ccccc23)cc1    NO
33. CCOC(=O)CCC(NC(=O)c1ccc(Nc2nc3ccccc3nc2-c2cccs2)cc1)C(=O)OCC (centres undefined)    NO
34. O=C1C(C(c2ccccc2)N2CCOCC2)=C(O)C(c2ccccc2)N1c1ccccc1 (centres undefined)    NO
35. COc1cc(COC(=O)N2CC=CC2C(=O)O)c([N+](=O)[O-])cc1OC (centres undefined)    NO
36. NC(=O)Nc1c(Cl)cc(S(N)(=O)=O)cc1Cl    NO
37. CC1=CP(=O)(c2c(C(C)C)cc(C(C)C)cc2C(C)C)CCC1Cl (centres undefined)    NO
38. CC(=O)O[C@H]1C[C@@H](OC(C)=O)[C@@](C)(O)[C@@H]2[C@@H](OC(C)=O)[C@@]3(O)[C@H](/C=C(/CCl)[C@H]4O[C@H]4[C@@H](OC(C)=O)[C@@]12C)OC(=O)[C@@H]3C    NO
39. COc1ccc(C2c3cc4c(cc3OC(NCCO)C2C)OCO4)cc1 (centres undefined)    NO
